Protein target, amino acids: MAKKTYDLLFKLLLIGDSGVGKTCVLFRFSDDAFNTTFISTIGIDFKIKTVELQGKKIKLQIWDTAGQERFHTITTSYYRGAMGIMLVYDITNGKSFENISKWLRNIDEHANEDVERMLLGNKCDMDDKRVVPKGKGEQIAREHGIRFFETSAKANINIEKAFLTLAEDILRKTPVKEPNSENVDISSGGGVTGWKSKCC
Activity calls are given as the source filed them.
Metric: Kd

compound="CNC(=O)c1ccccc1Sc1ccc2c(/C=C/c3ccccn3)n[nH]c2c1 [AXITINIB]" metric=Kd readout_value="> 30 µM (inactive)"
compound="NC(=O)c1c(OCc2c(F)cc(Br)cc2F)nsc1NC(=O)NCCCCN1CCCC1 [OSI-632]" metric=Kd readout_value="> 30 µM (inactive)"

Shifting focus to the compound that follows.
Returns the measured Kd for the input compound. Input: Cc1cc(Nc2ncnc3ccc(NC4=NC(C)(C)CO4)cc23)ccc1Oc1ccn2ncnc2c1 [TUCATINIB]
> 30 µM (inactive)

---

System tested: Citron Rho-interacting kinase (Homo sapiens, UniProt O14578); note: in the data inactive means no Kd found up to 30 µM
Sequence (O14578 whole entry): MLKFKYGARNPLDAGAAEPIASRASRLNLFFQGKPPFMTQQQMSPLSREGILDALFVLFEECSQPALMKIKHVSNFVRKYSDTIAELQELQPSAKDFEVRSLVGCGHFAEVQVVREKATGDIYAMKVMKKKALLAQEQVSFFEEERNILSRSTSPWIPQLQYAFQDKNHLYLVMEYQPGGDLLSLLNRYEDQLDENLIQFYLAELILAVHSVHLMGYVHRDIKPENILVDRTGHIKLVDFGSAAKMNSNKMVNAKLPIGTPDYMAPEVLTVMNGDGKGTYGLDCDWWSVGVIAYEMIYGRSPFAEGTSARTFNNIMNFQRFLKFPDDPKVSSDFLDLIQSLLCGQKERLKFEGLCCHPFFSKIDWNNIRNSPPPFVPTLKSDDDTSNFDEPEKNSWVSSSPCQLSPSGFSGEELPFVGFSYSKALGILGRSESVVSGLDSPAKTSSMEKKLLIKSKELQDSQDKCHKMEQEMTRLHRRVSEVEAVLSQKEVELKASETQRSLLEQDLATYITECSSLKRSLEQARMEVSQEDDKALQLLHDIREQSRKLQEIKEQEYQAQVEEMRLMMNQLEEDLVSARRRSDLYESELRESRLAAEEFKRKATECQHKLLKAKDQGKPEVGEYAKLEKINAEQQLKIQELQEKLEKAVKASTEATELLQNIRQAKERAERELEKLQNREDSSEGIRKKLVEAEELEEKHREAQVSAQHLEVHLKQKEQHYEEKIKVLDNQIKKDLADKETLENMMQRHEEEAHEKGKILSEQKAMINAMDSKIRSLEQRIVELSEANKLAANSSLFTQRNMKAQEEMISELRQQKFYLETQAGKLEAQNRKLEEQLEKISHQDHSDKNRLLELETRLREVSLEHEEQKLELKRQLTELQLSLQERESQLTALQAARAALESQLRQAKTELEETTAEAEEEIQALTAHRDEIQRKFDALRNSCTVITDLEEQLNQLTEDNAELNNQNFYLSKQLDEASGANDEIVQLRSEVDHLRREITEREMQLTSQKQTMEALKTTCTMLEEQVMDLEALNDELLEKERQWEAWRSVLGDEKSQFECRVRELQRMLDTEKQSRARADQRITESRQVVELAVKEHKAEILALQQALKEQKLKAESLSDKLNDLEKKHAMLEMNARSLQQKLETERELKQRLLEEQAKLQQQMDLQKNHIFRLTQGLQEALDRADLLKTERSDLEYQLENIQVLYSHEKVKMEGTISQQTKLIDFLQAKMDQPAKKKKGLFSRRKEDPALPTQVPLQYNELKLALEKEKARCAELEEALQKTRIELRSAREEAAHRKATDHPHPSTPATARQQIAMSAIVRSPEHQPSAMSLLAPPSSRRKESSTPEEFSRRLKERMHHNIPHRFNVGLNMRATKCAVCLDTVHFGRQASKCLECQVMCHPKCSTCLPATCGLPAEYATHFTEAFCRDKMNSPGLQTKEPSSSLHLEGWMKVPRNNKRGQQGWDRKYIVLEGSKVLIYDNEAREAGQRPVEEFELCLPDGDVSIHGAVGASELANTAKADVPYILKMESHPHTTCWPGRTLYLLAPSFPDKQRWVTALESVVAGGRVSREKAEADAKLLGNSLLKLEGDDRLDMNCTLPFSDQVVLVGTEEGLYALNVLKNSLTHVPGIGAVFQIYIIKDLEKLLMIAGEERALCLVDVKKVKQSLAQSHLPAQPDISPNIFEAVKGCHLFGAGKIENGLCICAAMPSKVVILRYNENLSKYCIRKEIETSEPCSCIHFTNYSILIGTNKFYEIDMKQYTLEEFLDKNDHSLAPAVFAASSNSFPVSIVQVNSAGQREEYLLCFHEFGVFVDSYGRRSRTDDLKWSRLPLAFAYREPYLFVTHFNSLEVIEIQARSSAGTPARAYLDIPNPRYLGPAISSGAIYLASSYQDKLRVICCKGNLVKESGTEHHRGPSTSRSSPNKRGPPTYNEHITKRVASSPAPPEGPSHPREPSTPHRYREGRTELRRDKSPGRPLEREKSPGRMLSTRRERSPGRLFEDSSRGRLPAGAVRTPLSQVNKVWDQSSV
Activity calls are given as the source filed them.
In this exercise, the only acceptable responses are yes for active, no for inactive

Solved cases below.
molecule="COc1ncc(-c2ccc3nccc(-c4ccnnc4)c3c2)cc1NS(=O)(=O)c1ccc(F)cc1F [OMIPALISIB]" label_class=no
molecule=CC(=O)c1cnc2ccc(-c3cc(Cl)c(O)c(Cl)c3)nc2c1N[C@H]1CC[C@H](CN(C)C)CC1 label_class=yes
molecule="O=c1[nH]ccc2cc(OC3CCNCC3)ccc12 [SAR-407899 FREE BASE]" label_class=no
molecule="CO[C@H]1C[C@@H]2CC[C@@H](C)[C@@](O)(O2)C(=O)C(=O)N2CCCC[C@H]2C(=O)O[C@H]([C@H](C)C[C@@H]2CC[C@@H](OP(C)(C)=O)[C@H](OC)C2)CC(=O)[C@H](C)/C=C(\\C)[C@@H](O)[C@@H](OC)C(=O)[C@H](C)C[C@H](C)/C=C/C=C/C=C/1C [RIDAFOROLIMUS]" label_class=no
molecule="Cn1cc(-c2cnn3c(N)c(Br)c([C@@H]4CCCNC4)nc23)cn1 [SCH-900776]" label_class=no
molecule=C=CC(=O)N1CCC[C@H](n2c(=O)n(-c3ccc(Oc4ccccc4)cc3)c3c(N)ncnc32)C1 label_class=no

Alright, here's another molecule for you.
Which result was noted for this molecule in the test: NC(=O)c1c(OCc2c(F)cc(Br)cc2F)nsc1NC(=O)NCCCCN1CCCC1 [OSI-632]
no

---

System tested: Serine/threonine-protein kinase D3 (Homo sapiens); note: in the data inactive means no Kd found up to 30 µM
Sequence (O94806 whole entry): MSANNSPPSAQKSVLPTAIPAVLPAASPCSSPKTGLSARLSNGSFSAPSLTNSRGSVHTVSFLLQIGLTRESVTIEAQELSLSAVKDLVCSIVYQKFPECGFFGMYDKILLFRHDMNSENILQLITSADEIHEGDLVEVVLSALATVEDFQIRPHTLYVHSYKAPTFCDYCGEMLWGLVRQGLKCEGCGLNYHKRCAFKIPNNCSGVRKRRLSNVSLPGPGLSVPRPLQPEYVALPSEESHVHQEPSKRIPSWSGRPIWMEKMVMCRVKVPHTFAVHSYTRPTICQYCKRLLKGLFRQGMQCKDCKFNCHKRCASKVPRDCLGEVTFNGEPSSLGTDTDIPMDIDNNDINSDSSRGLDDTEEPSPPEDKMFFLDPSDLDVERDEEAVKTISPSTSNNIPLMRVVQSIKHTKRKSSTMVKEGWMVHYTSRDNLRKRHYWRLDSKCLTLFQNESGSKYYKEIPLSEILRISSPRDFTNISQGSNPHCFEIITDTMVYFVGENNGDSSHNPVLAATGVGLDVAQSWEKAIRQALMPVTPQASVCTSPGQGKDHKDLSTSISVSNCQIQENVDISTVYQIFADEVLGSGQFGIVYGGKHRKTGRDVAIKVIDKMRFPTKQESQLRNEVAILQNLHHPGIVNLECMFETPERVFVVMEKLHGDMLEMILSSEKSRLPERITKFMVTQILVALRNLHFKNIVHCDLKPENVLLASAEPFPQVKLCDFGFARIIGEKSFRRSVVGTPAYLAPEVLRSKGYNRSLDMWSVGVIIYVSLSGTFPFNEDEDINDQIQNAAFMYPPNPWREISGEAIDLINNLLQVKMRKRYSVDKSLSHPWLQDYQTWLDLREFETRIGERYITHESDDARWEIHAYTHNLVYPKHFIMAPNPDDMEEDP
Active and inactive are the calls of the source.
The reply should name one outcome from T = active, F = inactive

Check out these entries, answers already filled in.
compound=C[C@@H](NC(=O)c1ncnc(N)c1Cl)c1ncc(C(=O)Nc2cc(C(F)(F)F)c(Cl)cn2)s1 label_class=F
compound=N#CC1(c2ccc(NC(=O)c3cccnc3NCc3ccncc3)cc2)CCCC1 label_class=F
compound=Cc1nc(Nc2n[nH]c3c2CN(C(=O)N[C@H](CN(C)C)c2ccccc2)C3(C)C)c2sccc2n1 label_class=T
compound=CCS(=O)(=O)c1cccc(-c2cc(C(=O)NC3CCN(C)CC3)c(C)c3[nH]c4ncc(C)cc4c23)c1 label_class=F
compound=Cc1csc(-c2nnc(Nc3ccc(Oc4ncccc4-c4ccnc(N)n4)cc3)c3ccccc23)c1 label_class=T
compound=C=CC(=O)N1CCC[C@H](n2c(=O)n(-c3ccc(Oc4ccccc4)cc3)c3c(N)ncnc32)C1 label_class=F
compound=COc1c(OCCCN2CCOCC2)ccc2c1N=C(NC(=O)c1cnc(N)nc1)N1CCN=C21 label_class=F
compound=C[C@H]1CNCCCN1S(=O)(=O)c1cccc2cncc(F)c12 label_class=F

Read the next record carefully.
# fetch the recorded call for `Cn1cc(-c2cnc3ccc4ccc(CS(=O)(=O)NCc5ccccn5)cc4c(=O)c3c2)cn1` here
F

---

System tested: UniProt P29323
Sequence (P29323 whole entry): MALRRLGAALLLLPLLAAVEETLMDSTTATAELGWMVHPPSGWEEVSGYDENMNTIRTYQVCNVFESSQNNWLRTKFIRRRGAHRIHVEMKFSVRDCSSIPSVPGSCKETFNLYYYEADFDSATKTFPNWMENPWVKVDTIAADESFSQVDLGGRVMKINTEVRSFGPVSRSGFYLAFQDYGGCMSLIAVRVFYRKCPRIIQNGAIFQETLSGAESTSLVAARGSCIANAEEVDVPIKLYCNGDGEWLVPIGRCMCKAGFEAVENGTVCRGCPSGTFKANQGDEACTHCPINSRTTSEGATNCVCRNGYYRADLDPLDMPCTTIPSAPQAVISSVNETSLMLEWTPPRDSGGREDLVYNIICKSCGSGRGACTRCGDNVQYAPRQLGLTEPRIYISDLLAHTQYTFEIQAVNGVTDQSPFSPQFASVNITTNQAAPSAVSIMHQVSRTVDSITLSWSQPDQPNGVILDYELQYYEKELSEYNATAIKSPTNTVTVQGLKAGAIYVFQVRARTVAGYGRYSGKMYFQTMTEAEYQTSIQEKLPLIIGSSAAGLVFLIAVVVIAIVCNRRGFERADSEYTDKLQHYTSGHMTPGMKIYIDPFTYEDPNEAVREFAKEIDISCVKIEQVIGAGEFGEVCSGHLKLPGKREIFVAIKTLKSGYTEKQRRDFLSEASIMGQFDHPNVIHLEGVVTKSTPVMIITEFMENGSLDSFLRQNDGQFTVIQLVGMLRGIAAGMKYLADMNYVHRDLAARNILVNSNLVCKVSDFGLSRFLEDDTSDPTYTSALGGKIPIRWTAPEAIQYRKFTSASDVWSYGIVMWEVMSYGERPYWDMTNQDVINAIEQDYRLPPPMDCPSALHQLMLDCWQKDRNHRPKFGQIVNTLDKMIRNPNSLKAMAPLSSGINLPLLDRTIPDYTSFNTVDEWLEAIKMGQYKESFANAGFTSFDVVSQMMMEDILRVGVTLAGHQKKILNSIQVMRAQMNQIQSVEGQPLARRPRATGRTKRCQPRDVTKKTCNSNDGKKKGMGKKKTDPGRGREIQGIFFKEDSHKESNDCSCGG
Active and inactive are the calls of the source.
Reply using exactly one outcome from 1.0 = active, 0.0 = inactive

Which result was noted for this molecule in the test: `CN1C/C=C/CCOc2cccc(c2)-c2ccnc(n2)Nc2cccc(c2)C1`
0.0

---

System tested: TGF-beta receptor type-1 (Homo sapiens); note: in the data inactive means no Kd found up to 30 µM
Sequence (P36897 whole entry): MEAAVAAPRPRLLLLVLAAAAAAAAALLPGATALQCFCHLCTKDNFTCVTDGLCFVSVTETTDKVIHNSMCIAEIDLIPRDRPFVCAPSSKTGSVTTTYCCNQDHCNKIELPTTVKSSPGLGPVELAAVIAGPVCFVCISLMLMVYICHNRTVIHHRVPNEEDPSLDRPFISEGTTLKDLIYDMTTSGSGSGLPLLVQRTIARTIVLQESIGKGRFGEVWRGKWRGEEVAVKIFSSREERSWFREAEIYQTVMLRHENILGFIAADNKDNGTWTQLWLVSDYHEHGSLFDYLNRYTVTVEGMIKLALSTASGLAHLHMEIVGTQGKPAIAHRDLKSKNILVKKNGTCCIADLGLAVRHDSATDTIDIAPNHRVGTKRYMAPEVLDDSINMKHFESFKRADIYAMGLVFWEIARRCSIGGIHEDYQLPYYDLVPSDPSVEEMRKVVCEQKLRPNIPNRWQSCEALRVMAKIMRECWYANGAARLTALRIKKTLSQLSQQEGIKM
Calls of active or inactive are those of the source.
# output must be one of active, inactive

structure=CO[C@H]1C[C@@H]2CC[C@@H](C)[C@@](O)(O2)C(=O)C(=O)N2CCCC[C@H]2C(=O)O[C@H]([C@H](C)C[C@@H]2CC[C@@H](OC(=O)C(C)(CO)CO)[C@H](OC)C2)CC(=O)[C@H](C)/C=C(\C)[C@@H](O)[C@@H](OC)C(=O)[C@H](C)C[C@H](C)/C=C/C=C/C=C/1C label_class=inactive
structure=O=C(Nc1cc(C(F)(F)F)cc(C(F)(F)F)c1)c1cc(Cl)ccc1O label_class=inactive
structure=CCn1cc(-c2ccnc3[nH]c(-c4cccc(CN(C)C)c4)cc23)c(-c2ccc(NC(=O)N(C)C)cc2)n1 label_class=active

How was `CC(=O)NCC(=O)N1[C@@H]2CC[C@H]1c1ccc(Nc3ncc(C(F)(F)F)c(NC4CCC4)n3)cc12` classified in this test?
inactive

Outcome logged for `COc1c(OCCCN2CCOCC2)ccc2c1N=C(NC(=O)c1cnc(N)nc1)N1CCN=C21` in this assay:
inactive

Tell me the assay call for `C[C@@H](NC(=O)c1ncnc(N)c1Cl)c1ncc(C(=O)Nc2cc(C(F)(F)F)c(Cl)cn2)s1` please.
inactive

Per the records of this test, what outcome belongs to `CCNC(=O)C#Cc1ccc2c(c1)NC(=O)/C2=C(\Nc1ccc(CN(C)C)cc1)c1ccccc1` ?
inactive

What is the recorded call for this molecule in the test? `Cc1nc(NC(=O)N2CCC[C@H]2C(N)=O)sc1-c1ccnc(C(C)(C)C(F)(F)F)c1`
inactive

Tell me the assay call for `COc1ccc(S(=O)(=O)N(C(C)=O)c2ccccc2/C=C/c2cc[n+]([O-])cc2)cc1` please.
inactive

# fetch the recorded call for `CCn1c(C(=O)N(C2CC2)C2CC2)cc2c3c(ncn3C)c(Nc3cc(C)n(C)n3)nc21` here
inactive

What did this assay record as the result for `CNC(=O)c1nn(C)c2c1C(C)(C)Cc1cnc(Nc3ccc(N4CCN(C)CC4)cc3)nc1-2` ?
inactive
